Cathepsin D (Homo sapiens): recorded IC50 for assorted molecules
Field format: number, assumed nM, no unit text.

smiles.code	IC50 [nM]
CCCN(CCC)C(=O)c1cc(C(N)=O)cc(C(=O)N[C@@H](Cc2cc(F)cc(F)c2)[C@H](O)CNCc2cccc(OC)c2)c1	2400

Query: Field: IC50 (Cathepsin D (Homo sapiens)). Entry: CCCN(CCC)C(=O)c1cc(C#N)cc(C(=O)N[C@@H](Cc2ccccc2)[C@H](O)CNCc2cccc(OC)c2)c1
Reply: 660

---

Cathepsin D (Homo sapiens, UniProt P07339): recorded pIC50 for assorted compounds
Sequence (P07339 65-162 limits assumed): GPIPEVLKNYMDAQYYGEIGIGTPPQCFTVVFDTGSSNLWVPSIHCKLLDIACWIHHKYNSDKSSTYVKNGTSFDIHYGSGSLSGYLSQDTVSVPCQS
Sequence (P07339 169-412 limits assumed): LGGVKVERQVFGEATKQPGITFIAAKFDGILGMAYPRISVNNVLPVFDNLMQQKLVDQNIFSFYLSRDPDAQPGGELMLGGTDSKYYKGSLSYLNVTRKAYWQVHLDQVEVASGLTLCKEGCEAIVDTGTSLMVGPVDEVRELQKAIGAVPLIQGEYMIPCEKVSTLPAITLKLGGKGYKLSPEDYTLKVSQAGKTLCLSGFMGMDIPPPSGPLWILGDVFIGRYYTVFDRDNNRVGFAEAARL
When answering, recall that pIC50 equals minus log10 of the concentration in mol/L, and write that number alone.

Query: State the recorded pIC50 for this entry: CCCN(CCC)C(=O)c1cc(C(=O)N[C@@H](Cc2ccccc2)[C@H](O)CNCc2cccc(OC)c2)cc(C(=O)OCC)c1
Reply: 6.06

Query: State the recorded pIC50 for this entry: CCCN(CCC)C(=O)c1cc(C)cc(C(=O)N[C@@H](Cc2ccccc2)[C@H](O)CNCc2cccc(OC)c2)c1
Reply: 6.35

Query: State the recorded pIC50 for this entry: CCCN(CCC)C(=O)c1cc(C)cc(C(=O)N[C@@H](Cc2cc(F)cc(F)c2)[C@H](O)CNCc2cccc(CC)c2)c1
Reply: 6.82
